- Tested on: large crabgrass (Digitaria sanguinalis, DIGSA)
- Procedure Summary: Post-emerge greenhouse herbicide test
- Type: in vivo
- Experimental Context: 250 g ai/ha, 14 days after application
Readout Type: Post-emerge Herbicidal Activity DIGSA (phytotoxicity rating 0-100)
When you answer, write just the number.

Output measured Post-emerge Herbicidal Activity DIGSA (phytotoxicity rating 0-100) for this item: Cc1nc2c(-n3ncc(C(F)(F)F)cc3=O)c(F)cc(Cl)c2o1
0

Output measured Post-emerge Herbicidal Activity DIGSA (phytotoxicity rating 0-100) for this item: CC1Oc2c(Cl)cc(F)c(-c3nn(C)c(OC(F)F)c3Cl)c2NC1=O (stereo not drawn)
65

Output measured Post-emerge Herbicidal Activity DIGSA (phytotoxicity rating 0-100) for this item: Cn1c(C(F)(F)F)cc(=O)n(-c2c(F)cc(Cl)c3c2N=C(c2ccccc2)CO3)c1=O
0

Output measured Post-emerge Herbicidal Activity DIGSA (phytotoxicity rating 0-100) for this item: Cc1nc2c(-n3c(=O)cc(C(F)(F)F)n(C)c3=O)c(F)cc(Cl)c2oc1=O
0

Output measured Post-emerge Herbicidal Activity DIGSA (phytotoxicity rating 0-100) for this item: Cn1c(C(F)(F)F)cc(=O)n(-c2c(F)cc(Cl)c3c2NC(=O)CO3)c1=O
30

Output measured Post-emerge Herbicidal Activity DIGSA (phytotoxicity rating 0-100) for this item: CCOC(=O)c1nc2c(-n3c(=O)cc(C(F)(F)F)n(C)c3=O)c(F)cc(Cl)c2oc1=O
0

Output measured Post-emerge Herbicidal Activity DIGSA (phytotoxicity rating 0-100) for this item: CC1Oc2c(Cl)cc(F)c(-n3c(=O)cc(C(F)(F)F)n(C)c3=O)c2NC1=O (stereo not drawn)
70

Output measured Post-emerge Herbicidal Activity DIGSA (phytotoxicity rating 0-100) for this item: CCc1nc2c(N3C(=O)C4CCCCN4C3=S)c(F)cc(Cl)c2o1 (single isomer, unassigned) [Compound 7-5]
10

Output measured Post-emerge Herbicidal Activity DIGSA (phytotoxicity rating 0-100) for this item: CCc1nc2c(N3C(=O)C4CCCCN4C3=S)c(F)cc(Cl)c2o1 (single isomer, unassigned) [Compound 7-6]
0

Output measured Post-emerge Herbicidal Activity DIGSA (phytotoxicity rating 0-100) for this item: Nn1c(C(F)(F)F)cc(=O)n(-c2c(F)cc(Cl)c3c2NC(=O)CO3)c1=O
20

Output measured Post-emerge Herbicidal Activity DIGSA (phytotoxicity rating 0-100) for this item: CCc1nc2c(-n3c(=O)n4n(c3=S)CCC=C4)c(F)cc(Cl)c2o1
70

Output measured Post-emerge Herbicidal Activity DIGSA (phytotoxicity rating 0-100) for this item: COC(=O)CC1CNc2c(c(Cl)cc(F)c2-n2c(=O)cc(C(F)(F)F)n(C)c2=O)O1 (stereo not drawn)
50

###

- Test system: field corn (Zea mays L., var. Dekalb 527, CORN)
- Procedure Summary: Post-emerge greenhouse crop damage test
- Format: in vivo
- Experimental Context: 250 g ai/ha, post-emerge, 14 days after application
Label criterion not met if Post-emerge crop damage CORN (phytotoxicity rating 0-100) falls below 30; label criterion met in every other case.

Example entries and their recorded answers appear below.
Compound | Test System | Category Label
CC1Oc2c(Cl)cc(F)c(-c3nn(C)c(OC(F)F)c3Cl)c2NC1=O (stereo not shown) [Compound 10-8] | field corn (Zea mays L., var. Dekalb 527, CORN) | criterion not met
Nn1c(C(F)(F)F)cc(=O)n(-c2c(F)cc(Cl)c3c2NC(=O)CO3)c1=O [Compound 4-2] | field corn (Zea mays L., var. Dekalb 527, CORN) | criterion met
Cn1c(C(F)(F)F)cc(=O)n(-c2c(F)cc(Cl)c3c2NC(=O)CO3)c1=O [Compound 4-1] | field corn (Zea mays L., var. Dekalb 527, CORN) | criterion met

Check if Post-emerge crop damage CORN (phytotoxicity rating 0-100) >= 30 (inclusive). Item: CCOC(=O)c1nc2c(-n3c(=O)cc(C(F)(F)F)n(C)c3=O)c(F)cc(Cl)c2oc1=O [Compound 3-5]
criterion not met

Check if Post-emerge crop damage CORN (phytotoxicity rating 0-100) >= 30 (inclusive). Item: Cc1nc2c(-n3ncc(C(F)(F)F)cc3=O)c(F)cc(Cl)c2o1 [Compound 12-1]
criterion not met

Check if Post-emerge crop damage CORN (phytotoxicity rating 0-100) >= 30 (inclusive). Item: CCc1nc2c(N3C(=O)C4CCCCN4C3=S)c(F)cc(Cl)c2o1 (single isomer, unassigned) [Compound 7-5]
criterion not met
